We begin with a simple list: items and their reported relative viability.
# Tested on: COR-L 105
# protocol-notes: relative viability (nuclei count vs DMSO), 5 days (fraction); higher = more cells survive
# applied-conditions: first compound 6.325 µM
Hey, just send me the number, nothing else.

Quick check: relative viability of Cc1csc(=NC2CCCCC2)n1/N=C/c1ccc(O)c(O)c1O [MIM1] + Cc1nc(NC(=O)N2CCC[C@H]2C(N)=O)sc1-c1ccnc(C(C)(C)C(F)(F)F)c1 [Alpelisib] (partner 2 µM) ? 0.934

Similarly, Cc1csc(=NC2CCCCC2)n1/N=C/c1ccc(O)c(O)c1O [MIM1] + Cc1cc(Nc2cc(N3CCN(C)CC3)nc(Sc3ccc(NC(=O)C4CC4)cc3)n2)n[nH]1 [Tozasertib] (partner 0.1 µM) ? 0.354

Please turn your attention to the following entry.
Quick check: relative viability of Cc1csc(=NC2CCCCC2)n1/N=C/c1ccc(O)c(O)c1O [MIM1] + C[C@@H](Oc1cc(-c2cnn(C3CCNCC3)c2)cnc1N)c1c(Cl)ccc(F)c1Cl [Crizotinib] (partner 1 µM) ? 0.724

All values here come from the supplement of paper PMC10307832.
